- procedure.text: yeast display, Sf9 membrane polyspecificity reagent, FACS + sequencing; frameworks hold sequencing errors
assay.endpoint: polyreactivity (PSR sort gate)

sequence.input	measured.result
QVQLVESGGGLVQAGGSLRLSCADSGSTFRYNAMGWYREAPGKERELVADIRRSGGSTYYADSVKGRFTISRDKAKNTVYLQMNSLKPEDTAVYYCNAAVSRLYYHSYSYRSYYYWGQGTQVTVSS	high polyreactivity
QVQLVESGGGLVQAAGSLRLSCAASGSIFGAYAMGWYRQAPGKERELVAAINYGGATTYYADSVKGRFTISRDNAKNTVYLQMNSLKPEDTAVYYCAADYLYAYGDVAVVYGWYAYYYWGQGTQVTVSS	low polyreactivity
QDQLVESGGLLVQAGGSLRLSCAAYGSTIGVYAMGWYRQAPRKERELVAAISSSTGSTYYADSVKGRFTISRDNAKNTVYLQMIRQKPEDTAVFYCAAAGYGKVRGDYWGQGTQVSVSS	low polyreactivity
QVQLVESGGGLVQAGGSLRLSCAASGRIFPPYAMGWYRQAPGKERELVATISYTGGSTYYADSVKGRFTISRDNAKNTVYLQMNRLKPEDTAVYYCNAEYYYWNREGDYWGQGTQVTVSS	low polyreactivity
QVQLQESGGGLVNAGGSLRLSCAASGTISFINMMGWYRQAPGRERELVASINFGANTNYADSVKGRFTISRDNAKNTVYLQMNSLKPEDTAVYYCAVYDFDAYTLYYWGQGTLVTVSS	high polyreactivity
